# Experimental system: T1, CD81 (UniProt P60033 1-236, limits assumed)
# T1 construct: whole, on cells; also called CD81 receptor
# T1 sequence (looked up): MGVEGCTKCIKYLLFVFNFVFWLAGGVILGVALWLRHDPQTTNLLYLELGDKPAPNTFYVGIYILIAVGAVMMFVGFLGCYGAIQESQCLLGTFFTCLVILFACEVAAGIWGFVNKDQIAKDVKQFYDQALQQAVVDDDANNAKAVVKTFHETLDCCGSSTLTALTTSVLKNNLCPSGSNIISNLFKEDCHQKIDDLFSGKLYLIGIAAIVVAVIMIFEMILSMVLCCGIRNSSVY
# Assay method text: cell ELISA;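 note: antibody binding to HuH7 cells expressing CD81 versus a CD81-negative HuH7 control line, bound antibody detected by secondary reagent, absorbance at 450 nm with 620 nm reference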
Binary label based on ELISA data with cut-off 0.4: below gives Met, not below gives Not met.

Field: below-cutoff. Rule: recorded ELISA data strictly less than 0.4. Subject: CD81K04 HC GG-04-hVH_1_69 / LC GG-02-hVK_4_1 (antibody, V domains shown, human constant region) VH: QVQLVQSGAEVKKPGSSVKVSCKASGYTFSSSWMNWVRQAPGQGLEWMGRIYSGDGDAIYNQKFQGRATITADESTSTAYMELSSLRSEDTAVYYCAREGKTGDLLLRSWGQGTLVTVSS VL: DIVMTQSPDSLAVSLGERATINCKSSKSVSTSIYSYMHWYQQKPGQPPKLLIYYASYRESGVPDRFSGSGSGTDFTLTISSLQAEDVAVYYCQHSREFPFTFGQGTKLEIK
Met

Another binder to look at: CD81K04 HC JA_GG-14-hVH_1_3 / LC GG-02-hVK_4_1 (antibody, V domains shown, human constant region) VH: QVQLVQSGAEVKKPGASVKVSCKASGYTFSSSWMNWVRQAPGQGLEWMGRIYSGDGDAIYNGKFKGRATITADTSASTAYMELSSLRSEDTAVYYCAREGKTGDLLLRSWGQGTLVTVSS VL: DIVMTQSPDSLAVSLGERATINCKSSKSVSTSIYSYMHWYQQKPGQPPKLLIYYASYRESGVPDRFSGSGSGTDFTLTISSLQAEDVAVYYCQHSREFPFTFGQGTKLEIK
Not met

Another binder to look at: CD81K04 HC JA_GG-16-hVH_1_3 / LC GG-05-hVK_3_11 (antibody, V domains shown, human constant region) VH: QVQLVQSGAEVKKPGASVKVSCKASGYTFSSSWMNWVRQAPGQGLEWMGRIYSGDGDAIYNGKFKGRVTITADTSASTAYMELSSLRSEDTAVYYCAREGKTGDLLLRSWGQGTLVTVSS VL: EIVLTQSPATLSLSPGERATLSCRASKSVSTSIYSYLHWYQQKPGQAPRLLIYYASNRETGIPARFSGSGSGTDFTLTISSLEPEDFAVYYCQHSREFPFTFGQGTKLEIK
Not met

Another binder to look at: CD81K04 HC JA_GG-14-hVH_1_69-GA / LC GG-05-hVK_3_11 (antibody, V domains shown, human constant region) VH: QVQLVQSGAEVKKPGSSVKVSCKASGYTFSSSWMNWVRQAPGQGLEWMGRIYSGDGDAIYNGKFKGKATITADESTSTAYMELSSLRSEDTAVYYCAREGKTGDLLLRSWGQGTLVTVSS VL: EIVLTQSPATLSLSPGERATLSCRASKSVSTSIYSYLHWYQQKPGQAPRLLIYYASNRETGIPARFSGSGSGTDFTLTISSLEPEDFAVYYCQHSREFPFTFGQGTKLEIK
Met

Another binder to look at: CD81K04 HC GG-04-hVH_1_69 / LC GG-06-hVK_1_39 (antibody, V domains shown, human constant region) VH: QVQLVQSGAEVKKPGSSVKVSCKASGYTFSSSWMNWVRQAPGQGLEWMGRIYSGDGDAIYNQKFQGRATITADESTSTAYMELSSLRSEDTAVYYCAREGKTGDLLLRSWGQGTLVTVSS VL: DIQMTQSPSSLSASVGDRVTITCRASKSVSTSIYSYLNWYQQKPGKAPKLLIYYASYLQSGVPSRFSGSGSGTDFTLTISSLQPEDFATYYCQHSREFPYTFGQGTKLEIK
Met

Another binder to look at: CD81K04 HC JA_GG-14-hVH_1_69-GA / LC GG-04-hVK_4_1 (antibody, V domains shown, human constant region) VH: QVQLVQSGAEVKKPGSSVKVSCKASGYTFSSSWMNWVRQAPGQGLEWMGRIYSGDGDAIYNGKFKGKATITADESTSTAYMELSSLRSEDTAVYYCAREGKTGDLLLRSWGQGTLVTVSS VL: DIVMTQSPDSLAVSLGERATINCKSSKSVSTSIYSYLAWYQQKPGQPPKLLIYYASTRESGVPDRFSGSGSGTDFTLTISSLQAEDVAVYYCQHSREFPYTFGQGTKLEIK
Met

Another binder to look at: CD81K04 HC GG-05-hVH_1_18 / LC JA_GG-10-hVK_4_1 (antibody, V domains shown, human constant region) VH: QVQLVQSGAEVKKPGASVKVSCKASGYTFSSSWMNWVRQAPGQGLEWMGRIYSGDGDAIYAQKLQGRVTMTTDTSTSTAYMELRSLRSDDTAVYYCAREGKTGDLLLRSWGQGTLVTVSS VL: DIVMTQSPDSLAVSLGERATINCRASKSVSTSIYSYMHWYQQKPGQPPKLLIKYASYLESGVPDRFSGSGSGTDFTLTISSLQAEDVAVYYCEHSREFPFTFGQGTKLEIK
Not met

Another binder to look at: CD81K04 HC JA_GG-14-hVH_1_69-GA / LC GG-02-hVK_4_1 (antibody, V domains shown, human constant region) VH: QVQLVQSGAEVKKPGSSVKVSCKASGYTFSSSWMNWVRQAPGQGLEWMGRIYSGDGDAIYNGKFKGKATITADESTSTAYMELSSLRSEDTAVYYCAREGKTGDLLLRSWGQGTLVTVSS VL: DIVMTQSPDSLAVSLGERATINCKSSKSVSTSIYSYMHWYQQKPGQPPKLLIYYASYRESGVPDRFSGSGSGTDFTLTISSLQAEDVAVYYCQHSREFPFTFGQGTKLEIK
Met

Another binder to look at: CD81K04 HC JA_GG-14-hVH_1_69-GA / LC JA_GG-09-hVK_4_1 (antibody, V domains shown, human constant region) VH: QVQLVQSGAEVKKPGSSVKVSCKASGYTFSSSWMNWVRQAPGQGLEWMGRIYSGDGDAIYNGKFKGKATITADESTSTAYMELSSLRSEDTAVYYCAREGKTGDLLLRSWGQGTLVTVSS VL: DIVMTQSPDSLAVSLGERATINCKSSKSVSTSIYSYMHWYQQKPGQPPKLLIKYASTRESGVPDRFSGSGSGTDFTLTISSLQAEDVAVYYCEHSREFPFTFGQGTKLEIK
Not met

Another binder to look at: CD81K04 HC JA_GG-14-hVH_1_69 / LC JA_GG-09-hVK_4_1 (antibody, V domains shown, human constant region) VH: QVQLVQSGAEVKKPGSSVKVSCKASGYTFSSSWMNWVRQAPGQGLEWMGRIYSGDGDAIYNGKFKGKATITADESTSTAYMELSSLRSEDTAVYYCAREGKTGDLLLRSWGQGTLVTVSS VL: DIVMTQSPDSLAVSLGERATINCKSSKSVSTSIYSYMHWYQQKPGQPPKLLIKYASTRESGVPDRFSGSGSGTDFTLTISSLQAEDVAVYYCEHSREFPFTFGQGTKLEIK
Not met
